Sourced from patent US20240254245A1

- testedSystem: T1, human RANKL protein (Sino Biological, 11682-HNCH) (human, UniProt O14788 136-317, limits assumed)
- T1 construct: Bought protein
- T1 sequence (looked up): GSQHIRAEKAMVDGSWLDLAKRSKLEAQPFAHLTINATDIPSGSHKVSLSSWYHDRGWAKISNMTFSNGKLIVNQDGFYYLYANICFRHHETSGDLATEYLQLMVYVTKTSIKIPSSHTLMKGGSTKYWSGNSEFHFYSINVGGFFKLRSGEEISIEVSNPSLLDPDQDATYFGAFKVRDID
- assayOverview: SPR (Biacore), antibody captured on Protein A chip, RANKL in flow, 1:1 fit
Quick list: Kd per entry.
Please respond with the number in nM and leave the unit unwritten.

**Query** Reported Kd for 3-83L (antibody, V domains shown, Variable regions fused to human constant regions) VH: EVQLLESGGGLVQPGGSLRLSCAASGFTFSSYAMSWVRQAPGKGLEWVSGITGSGGSTYYADSVKGRFTISRDNSKNTLYLQMNSLRAEDTAVYYCAKDPGTTVIMSWFDPWGQGTLVTVSS VL: EIVLTQSPGTLSLSPGERATLSCRASQALGVRGLAWYQQKPGQAPRLLIYGASSRATGIPDRFSGSGSGTDFTLTISRLEPEDFAVFYCQQYGSSPRTFGQGTKVEIK : what is it?
**Result** 20.7

**Query** Which Kd reading was recorded for the binder 2-79L (antibody, V domains shown, Variable regions fused to human constant regions) VH: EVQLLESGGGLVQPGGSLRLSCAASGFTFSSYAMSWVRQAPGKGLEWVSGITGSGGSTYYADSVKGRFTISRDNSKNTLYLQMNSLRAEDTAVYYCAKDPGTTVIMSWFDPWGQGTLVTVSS VL: EIVLTQSPGTLSLSPGERATLSCRASQSVRGRYLAWYQQKPGQAPRLLIYGSSSRATGIPDRFSGSGSGTDFTLTISRLEPEDFAVFYCQQYGSSPRTFGQGTKVEIK ?
**Result** 16.3

**Query** Which Kd value is on record for 2-87L (antibody, IgG4, V domains shown, Variable regions fused to human constant regions) VH: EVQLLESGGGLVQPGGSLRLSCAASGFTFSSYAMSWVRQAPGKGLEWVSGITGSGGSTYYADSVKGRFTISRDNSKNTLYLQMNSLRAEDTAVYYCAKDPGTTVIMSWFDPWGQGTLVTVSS VL: EIVLTQSPGTLSLSPGERATLSCRASQYLPFHRLAWYQQKPGQAPRLLIYDTSSRATGIPDRFSGSGSGTDFTLTISRLEPEDFAVFYCQQYGSSPRTFGQGTKVEIK ?
**Result** 25.6

**Query** Query (binder): 5-53H (antibody, V domains shown, Variable regions fused to human constant regions) VH: EVQLLESGGGLVQPGGSLRLSCAASGFTFSSYAMSWVRQAPGKGLEWVSGITGSGGSTYYADSVKGRFTISRDNSKNTLYLQMNSLRAEDTAVYYCAQDPCFTYIMSWFDPWGQGTLVTVSS VL: EIVLTQSPGTLSLSPGERATLSCRASQSVRGRYLAWYQQKPGQAPRLLIYGASSRATGIPDRFSGSGSGTDFTLTISRLEPEDFAVFYCQQYGSSPRTFGQGTKVEIK ; field requested: Kd
**Result** 34

// switching to the query binder
**Query** Please give the measured Kd for this binder: 5-51H (antibody, V domains shown, Variable regions fused to human constant regions) VH: EVQLLESGGGLVQPGGSLRLSCAASGFTFSSYAMSWVRQAPGKGLEWVSGITGSGGSTYYADSVKGRFTISRDNSKNTLYLQMNSLRAEDTAVYYCAKDPCFSYIMSWFDPWGQGTLVTVSS VL: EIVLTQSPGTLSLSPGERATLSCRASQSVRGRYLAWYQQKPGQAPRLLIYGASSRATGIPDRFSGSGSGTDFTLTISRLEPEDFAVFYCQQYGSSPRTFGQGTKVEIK
**Result** 23.6
